details: 318.15 K; 100 kPa; Liquid; Vibrating tube method
READOUT TYPE: mass density (kg/m3)
Report the figure in kg/m3 without appending any unit label.

compound="CCCCn1cc[n+](C)c1.N#CN=C=[N-] [1-butyl-3-methylimidazolium dicyanamide]" readout_type="mass density" measurement_unit=kg/m3 observed_value=1047.5
compound="CCCCn1cc[n+](C)c1.F[B-](F)(F)F [1-butyl-3-methylimidazolium tetrafluoroborate]" readout_type="mass density" measurement_unit=kg/m3 observed_value=1187.4
compound="CCCCn1cc[n+](C)c1.COP(=O)([O-])OC [1-butyl-3-methyl-1H-imidazolium dimethylphosphate]" readout_type="mass density" measurement_unit=kg/m3 observed_value=1144.3
compound="CCCCn1cc[n+](C)c1.N#C[S-] [1-butyl-3-methylimidazolium thiocyanate]" readout_type="mass density" measurement_unit=kg/m3 observed_value=1058.4

The record that follows has no mass density shown yet.
Return reported mass density; argument: CC(=O)[O-].CCCCn1cc[n+](C)c1 [1-butyl-3-methylimidazolium acetate]
1040.5

====

details: 303.15 K; 100 kPa; Liquid; Vibrating tube method
Catalogue of compounds with associated mass density
Write the number in kg/m3 without appending the unit.

Below: 5 compounds and their reported mass density.
compound="CCCCn1cc[n+](C)c1.COP(=O)([O-])OC [1-butyl-3-methyl-1H-imidazolium dimethylphosphate]" observed_value=1154.3
compound="CC(=O)[O-].CCCCn1cc[n+](C)c1 [1-butyl-3-methylimidazolium acetate]" observed_value=1049.7
compound="CCCCn1cc[n+](C)c1.F[B-](F)(F)F [1-butyl-3-methylimidazolium tetrafluoroborate]" observed_value=1198
compound=CCCC[n+]1ccn(C)c1.O=S(=O)([N-]S(=O)(=O)C(F)(F)F)C(F)(F)F observed_value=1432.4
compound="CCCCn1cc[n+](C)c1.N#C[S-] [1-butyl-3-methylimidazolium thiocyanate]" observed_value=1067.2

Look at this compound and give its reported mass density. CCCCn1cc[n+](C)c1.N#CN=C=[N-] [1-butyl-3-methylimidazolium dicyanamide]
1057

====

assay: xn = mol fraction of the nth substance listed; settings: 333.15 K; 100 kPa; Liquid; Vibrating tube method; x2 = 0.25
READOUT TYPE: mass density (kg/m3)
The answer is to be given in kg/m3; state only the numeric part.

Example results:
compound="CCCCn1cc[n+](C)c1.COP(=O)([O-])OC [1-butyl-3-methyl-1H-imidazolium dimethylphosphate] + CCCC[n+]1ccn(C)c1.O=S(=O)([N-]S(=O)(=O)C(F)(F)F)C(F)(F)F" observed_value=1213.2
compound="CCCCn1cc[n+](C)c1.F[P-](F)(F)(F)(F)F [1-butyl-3-methylimidazolium hexafluorophosphate] + CCCC[n+]1ccn(C)c1.O=S(=O)([N-]S(=O)(=O)C(F)(F)F)C(F)(F)F" observed_value=1359.4
compound="CCCCn1cc[n+](C)c1.N#C[S-] [1-butyl-3-methylimidazolium thiocyanate] + CCCC[n+]1ccn(C)c1.O=S(=O)([N-]S(=O)(=O)C(F)(F)F)C(F)(F)F" observed_value=1170.8
compound="CC(=O)[O-].CCCCn1cc[n+](C)c1 [1-butyl-3-methylimidazolium acetate] + CCCC[n+]1ccn(C)c1.O=S(=O)([N-]S(=O)(=O)C(F)(F)F)C(F)(F)F" observed_value=1156.8

Now consider a different compound.
Which mass density reading was recorded for the compound CCCCn1cc[n+](C)c1.O=S(=O)([O-])C(F)(F)F [1-butyl-3-methylimidazolium trifluoromethanesulfonate] + CCCC[n+]1ccn(C)c1.O=S(=O)([N-]S(=O)(=O)C(F)(F)F)C(F)(F)F ?
1310.4
